# Study system: Glucose transporter (Leishmania mexicana)
# Assay info: ST_JUDE_LEISH: Cytotoxicity at 2uM final concentration against transgenic Leishmania Mexicana promastigotes LmGT2 that are glucose transport deficient and complemented with the L. Mexicana glucose transporter 2. Activity is measured by DNA content using SYBR green in vitro
# Assay type: functional
Metric: inhibition (%)
# number only, unit % dropped from output

The reported inhibition of the compound Cc1cccc2nc(-c3ccc(-c4ccc(NC(=O)Nc5ccc(Cl)c(Cl)c5)cc4)s3)[nH]c12 was -6.86

Briefly, inhibition measured for CCn1c(-c2nonc2N)nc2c(-c3cccc(NC(=O)Nc4ccc5c(c4)CCC5)c3)ncc(OCCCN)c21 : 2.89

Please fill in: inhibition reported for CC(C)CCNc1nc(NCCc2ccccc2)c2cc(O)ccc2n1 = -2.18

Form: compound = Fc1ccccc1C=NN=c1cc[nH]c2ccc(C(F)(F)F)cc12 ; inhibition = 2.13

inhibition in this record for CCCc1cc(OC)c(C[C@H]2c3cc(O)c(Cl)cc3CCN2C)cc1OC : 1.4

###

# Study system: Solute carrier family 2, facilitated glucose transporter member 1 (Homo sapiens)
# Assay info: ST_JUDE_LEISH: Cytotoxicity at 2uM final concentration against transgenic Leishmania Mexicana promastigotes LmGLUT1 that are glucose transport deficient and complemented with the human glucose transporter GLUT1. Activity is measured by DNA content using SYBR green in vitro
# Assay type: functional
Metric: inhibition (%)
Number in %, nothing else.

// O=C(/C=C/c1ccc(Cl)c(Cl)c1)NCCCCCN1CCCC(CNS(=O)(=O)c2cccc(C(F)(F)F)c2)C1 (configuration not stated) : inhibition value = -0.87

Record CN1CCN(CCCN(Cc2ccc(-c3cccc(CNCc4ccc5c(c4)OCO5)c3)cc2)C(=O)NC2CCCCC2)CC1 . Reported inhibition: 4.38

inhibition reading for COc1ccc2nccc([C@@H](O)CN3CCC(NCc4ccc5c(c4)sc(=O)n5C)CC3)c2c1 : -0.15

// CN(C)CCCOc1ccc(CCNCc2cccc(Oc3ccc(Cl)cc3)c2)cc1 : inhibition value = 14

inhibition in this record for Cc1sc2nc(CSc3ccccc3)nc(N3CCN(CC(=O)NC4CC4)CC3)c2c1C : -0.96

# inhibition (compound: O=C(/C=C/c1ccc(Cl)c(Cl)c1)NCCCCCN1CCC(NC(=O)Nc2ccc(C(F)(F)F)cc2)C1 (configuration not stated) ) is -0.17

Data point: Cc1ccc(F)c(OCC2CCN(c3ccc(C(=O)NC4CC4)cn3)CC2)c1 ; inhibition = 3.7

Value of measured inhibition for the entry NS(=O)(=O)c1cccc(N/C=C2\C(=O)Nc3ccc(S(=O)(=O)Cc4c(Cl)cccc4Cl)cc32)c1 : 4.04

The recorded inhibition for Cc1cccc2nc(-c3ccc(-c4ccc(CNCCNC(=O)c5ccnn5C)cc4)cc3)[nH]c12 is -0.55

The reported inhibition of the compound CCc1ccc(C(=O)Nc2cccc(CN3CCCN(Cc4ccc(O)cc4)CC3)c2)cc1 was 2.88

So for O=C(Nc1ccc(-c2nc3ccccc3[nH]2)cc1)c1ccc(S(=O)(=O)N2CCCCCC2)cc1 , the logged inhibition turned out to be 1.06

inhibition reported for this compound CC(C)(C)OC(=O)Cn1cnc2cc(NC(=O)c3cc([N+](=O)[O-])cc([N+](=O)[O-])c3)ccc21 : 3.13

###

# Study system: Glucose transporter (Leishmania mexicana)
# Assay info: ST_JUDE_LEISH: Cytotoxicity at 2uM final concentration against transgenic Leishmania Mexicana promastigotes LmGT2 that are glucose transport deficient and complemented with the L. Mexicana glucose transporter 2. Activity is measured by DNA content using SYBR green in vitro
# Format: functional
Metric: inhibition (%)
Write the answer as a number in %, unit excluded.

Lookup result for COc1ccccc1NC(=O)NC1CCN(CCCCCNC(=O)/C=C/c2ccc(Cl)c(Cl)c2)CC1 ; measured inhibition: 2.7

Recorded inhibition (compound CN(C)Cc1cccc(-c2ccc(NC(=O)c3ccc4c(=O)n(CC5CCCO5)cnc4c3)cc2)c1 (stereo not given) ): 14.5

Query CCOc1cc(C)ccc1C1CCN(CCN2CCC(CNC(=O)c3ccc(-c4ccc(C(F)(F)F)cc4)cc3)CC2)CC1 yields inhibition of 1.5

GET /value?item= Clc1ccccc1CCNCC1CCN(CC2CCCCC2)CC1 &field=inhibition returns 1.76

Data point: COc1cc(C(=O)N2CCN(C(C)C)CC2)ccc1CN(C)CCCCN1CCN(c2cccc(Cl)c2Cl)CC1 ; inhibition = 0.12

The reported inhibition of the compound O=c1[nH]c2c(cc1CNC1CCCCC1)c(-c1cccc(F)c1)nn2-c1ccccc1 was -3.71

response.value for COc1cccc(OC)c1C(=O)Nc1cccc(-c2nn3ccccc3c2-c2ccnc(Nc3cccc(F)c3)n2)c1 (field: inhibition) = 4.91

Noted for CC(C)N(Cc1ccccc1)C(=O)CN1C(=O)COc2ccc(S(=O)(=O)N3CCCCCC3)cc21 : its inhibition reads 10.5

CN1CCN(c2cccc(-c3nnc(-c4ccc(OCC(=O)NCc5cccc(C(F)(F)F)c5)c([N+](=O)[O-])c4)o3)c2)CC1 has a reported inhibition of 6.46

Memo: COc1ccc(CCn2c(=N)c(C(=O)NCc3cccnc3)cc3c(=O)n4cccc(C)c4nc32)cc1 , reported inhibition: 0.26

compound Cc1cc2c(NC(=O)NC3CCN(Cc4ccc(Cl)c(Cl)c4)CC3)cccc2cn1 , inhibition observed: -3.37

Form field inhibition, entry OCC1CCN(Cc2cccc(-c3cccc(-c4nc5cc(C(F)(F)F)ccc5[nH]4)c3)c2)CC1 : 0.14

The compound Cc1ccc(O)cc1Nc1c(C(N)=O)cnc2ccc(-c3cncs3)cc12 showed inhibition equal to -1.28

Measured inhibition of CC(C)NCc1ccc(-c2ccc(NS(=O)(=O)c3cccc4cccnc34)cc2)cc1 : 12.7

Field inhibition (entry COc1ccc2c(CCNc3nc(SC)ncc3C(=O)NCCc3ccc(F)cc3)c[nH]c2c1 ) reads 1.11

Given item FC(F)(F)c1ccc(CNC2CCN(CC3CCCCC3)CC2)cc1 , the value recorded as its inhibition is 8.5

Value of inhibition reported for the compound CCCN(CCCCCCNCCc1ccc(Cl)cc1)CCc1ccc(O)c(O)c1 is -4.57

Value of measured inhibition for the entry CN1CCC(NCc2cccc(-c3ccc(S(=O)(=O)NCCc4ccccn4)c(F)c3)c2)CC1 : 0.94

CN1CCN(Cc2cccc(Nc3nccc(Nc4ccc(Oc5ccccc5)cc4)n3)c2)CC1 has a reported inhibition of 5.8

Briefly, inhibition measured for CCCCNCc1ccc(-c2nc(CN(CCCn3ccnc3)C(=O)C3COc4ccccc4O3)cs2)cc1 (stereo not given) : -0.46

Item: CC(C)CCNCc1ccc(OCc2cccc(C(=O)Nc3ccccc3)c2)c(I)c1 | inhibition: 1.47

Looking up CCNc1cc(C)nc(Nc2ccc(NC(=O)c3ccccc3Cl)cc2)n1 , I see its inhibition listed as 5.34

inhibition reported for this compound O=C1Nc2cccc3c2C1(CCCCN1CCC(c2c(-c4ccc(F)cc4)[nH]c4ccccc24)CC1)CCC3 (stereo not given) : 6.27

inhibition recorded for this compound, Cc1ccc(NC(=O)c2cn(-c3ccccc3)nc2-c2ccc(F)cc2)cc1[N+](=O)[O-] , is 1.86

The compound identified as CCN(CC)CCN(Cc1ccc(-c2ccc(C(F)(F)F)cc2)nc1)C(=O)Cn1cc(Cc2cnn(C)c2)c(=O)n2nc(-c3ccccc3)cc12 registered its inhibition at 0.44

For reference, reported inhibition for COc1cc(-c2ccc3c(-c4ccc(C(=O)N5CCN(C)CC5)cc4)n[nH]c3n2)cc(OC)c1OC stands at 5.3

Just so you know, measured inhibition for COc1ccccc1CNC(=O)c1ccc(N2CCN(c3ccncc3)CC2)cn1 came out at 1.11

The compound Cn1cc(CCNc2ccnc(NCCc3coc4ccccc34)n2)c2ccccc21 showed inhibition equal to 2.14

Lab note: measured inhibition of CCN1CCN(c2cc(C)c3cc(NC(=O)c4ccc(OC)c([N+](=O)[O-])c4)ccc3n2)CC1 was 2.13

In plain terms, CCOc1cc2ncnc(Nc3ccc(OCc4ccccc4OC)c(OC)c3)c2cc1OCC has a documented inhibition of 0.35

###

# Study system: Glucose transporter (Leishmania mexicana)
# Assay info: ST_JUDE_LEISH: Cytotoxicity at 2uM final concentration against transgenic Leishmania Mexicana promastigotes LmGT2 that are glucose transport deficient and complemented with the L. Mexicana glucose transporter 2. Activity is measured by DNA content using SYBR green in vitro
# Assay type: functional
I'd be grateful if you could share measured inhibition for these entries.

Measured inhibition, CCN(CCCN1CCCCC1)c1cc(C)nc(Nc2cc(Br)ccc2C)n1 : -0.36%

Reported inhibition ( COc1ccc2nccc(NC(=O)OC3CCC(NCc4ccc5c(n4)NC(=O)CS5)CC3)c2c1 (stereo not given) ) = 3.92%

The measured inhibition associated with COc1cccc(Nc2c(C(N)=O)cnc3ccc(-c4ccccc4)cc23)c1 reads 1.58%

The compound O=C(/C=C/c1ccc(Cl)c(Cl)c1)NC1CCC(CN2CCC(c3coc4ccccc34)CC2)CC1 (stereo not given) showed inhibition equal to -1.87%

What the record says about CCOCCCn1c(=N)c(C(=O)NCc2ccc(OC)cc2)cc2c(=O)n3cccc(C)c3nc21 : inhibition is 3.8%

Per the records, this compound ( Cc1cc(N[C@@H](Cc2ccccc2)C(=O)NCc2cccs2)nc(NCCc2ccc(F)cc2)n1 ) has inhibition equal to 4.14%

Entry under test: CN(Cc1ccc(NC(=O)NC2CCN(C(=O)/C=C/c3ccc(Cl)c(Cl)c3)CC2)cc1)C1CCOCC1 . Its inhibition was 3.44%

# inhibition of O=[N+]([O-])c1ccc(/C=N/O)nc1 = 84.6%

The reported inhibition of the compound CC(C)CN(C)c1ncnc2c1nc(-c1cncc(C#N)c1)n2CCNCc1ccccc1 was 4.39%

// inhibition lookup, compound = Cc1nnsc1C(=O)Nc1ccc(-c2ccc(-c3nc4cccc(C)c4[nH]3)s2)cc1 , result: 2.44%

CN(C)c1ccc(CN2CCCCC(NC(=O)c3cc(-c4ccccc4Cl)cs3)C2)cc1 (stereo not given) yielded inhibition of 4.6%

# inhibition of CC(C)N(Cc1cnc2nc(N)nc(N)c2n1)c1ccc(Cl)c(Cl)c1 = 1.16%

Looking up CCOc1c(CNCCCNc2cc(=O)c3ccccc3[nH]2)cc(I)cc1C(C)(C)C , I see its inhibition listed as 0.27%

What the record says about Cc1cc(=NN=Cc2ccccc2F)c2ccccc2[nH]1 : inhibition is 1.44%

Record CCCCNC(=O)c1cc(CNC2CCCCC2)ccc1-c1cccc(CNCc2ccc(-c3ccccc3)cc2)c1 , field inhibition: 2.67%

Recorded inhibition (compound CN(C)CCOc1cc(NC(=O)Nc2ccc(-c3ccncc3)c(Cl)c2)ccc1I ): 1.54%

// inhibition lookup, compound = C(=NNc1nc2ccccc2[nH]1)c1ccccc1OCc1ccccc1 , result: 3.06%

inhibition reading for COc1ccccc1NC(=O)Nc1cccc(-c2ccc(-c3nc4cc(C(F)(F)F)ccc4[nH]3)cc2)c1 : 0.72%

According to the records, this compound CC(CCc1ccccc1)NCC(O)c1ccc2c(c1)S(=O)(=O)c1ccccc1N2 (stereo not given) displays inhibition of 2.14%

Query Cc1cccc2nc(-c3ccc(-c4ccc(CN5CCCC(O)C5)cc4)cc3)[nH]c12 (stereo not given) yields inhibition of 19.8%

Record summary for COc1ccc(NC(=O)Nc2cccc(-c3ccc(-c4nc5cccc(C)c5[nH]4)s3)c2)cc1 : reported inhibition = 3.22%

Form field inhibition, entry CCN(CC)CCn1c(=N)n(CC(=O)c2ccc(-c3ccccc3)cc2)c2ccccc21 : 2.35%

Sure, the documented inhibition for Cc1cccc2nc(-c3cccc(-c4ccc(CNCc5cccc(N)c5)cc4)c3)[nH]c12 is -2.56%

Per the record, c1ccc(CNCCn2c(-c3ccc4c(c3)CCO4)nc3c(N4CCCC4)cccc32)cc1 has inhibition of 6.86%

Lab note: measured inhibition of O=[N+]([O-])c1cccc(NC(=S)N2CCCN(Cc3ccc(F)cc3F)CC2)c1 was 0.66%

inhibition recorded for this compound, CC(C)NCc1ccc(-c2ccc(-c3nc4cc(F)ccc4[nH]3)cc2)cc1 , is 6.75%

# inhibition (compound: O=C(Nc1ccc(-c2cccc(-c3nc4ccccc4[nH]3)c2)cc1)Nc1ccc(Cl)c(Cl)c1 ) is 0.9%

Summary for this compound, Cc1cc(C2CCN(CCCCNC(=O)c3ccc(NC(=O)c4ccc(Cl)cc4)cc3)CC2)c(C)cc1OCCN(C)C : inhibition is 9.76%

Input Cc1cccc2nc(-c3ccc(-c4ccc(NC(=O)Nc5ccc(Cl)cc5)cc4)s3)[nH]c12 . Output inhibition: 0.32%

Record O=C(Nc1cc(C(F)(F)F)cc(C(F)(F)F)c1)c1cc(C(F)(F)F)cc(C(F)(F)F)c1 , field inhibition: 1.06%
